Consider compounds characterized by their IC50 with JAK1 (Homo sapiens (Human), UniProt P23458).
Sequence (P23458 whole entry, species assumed): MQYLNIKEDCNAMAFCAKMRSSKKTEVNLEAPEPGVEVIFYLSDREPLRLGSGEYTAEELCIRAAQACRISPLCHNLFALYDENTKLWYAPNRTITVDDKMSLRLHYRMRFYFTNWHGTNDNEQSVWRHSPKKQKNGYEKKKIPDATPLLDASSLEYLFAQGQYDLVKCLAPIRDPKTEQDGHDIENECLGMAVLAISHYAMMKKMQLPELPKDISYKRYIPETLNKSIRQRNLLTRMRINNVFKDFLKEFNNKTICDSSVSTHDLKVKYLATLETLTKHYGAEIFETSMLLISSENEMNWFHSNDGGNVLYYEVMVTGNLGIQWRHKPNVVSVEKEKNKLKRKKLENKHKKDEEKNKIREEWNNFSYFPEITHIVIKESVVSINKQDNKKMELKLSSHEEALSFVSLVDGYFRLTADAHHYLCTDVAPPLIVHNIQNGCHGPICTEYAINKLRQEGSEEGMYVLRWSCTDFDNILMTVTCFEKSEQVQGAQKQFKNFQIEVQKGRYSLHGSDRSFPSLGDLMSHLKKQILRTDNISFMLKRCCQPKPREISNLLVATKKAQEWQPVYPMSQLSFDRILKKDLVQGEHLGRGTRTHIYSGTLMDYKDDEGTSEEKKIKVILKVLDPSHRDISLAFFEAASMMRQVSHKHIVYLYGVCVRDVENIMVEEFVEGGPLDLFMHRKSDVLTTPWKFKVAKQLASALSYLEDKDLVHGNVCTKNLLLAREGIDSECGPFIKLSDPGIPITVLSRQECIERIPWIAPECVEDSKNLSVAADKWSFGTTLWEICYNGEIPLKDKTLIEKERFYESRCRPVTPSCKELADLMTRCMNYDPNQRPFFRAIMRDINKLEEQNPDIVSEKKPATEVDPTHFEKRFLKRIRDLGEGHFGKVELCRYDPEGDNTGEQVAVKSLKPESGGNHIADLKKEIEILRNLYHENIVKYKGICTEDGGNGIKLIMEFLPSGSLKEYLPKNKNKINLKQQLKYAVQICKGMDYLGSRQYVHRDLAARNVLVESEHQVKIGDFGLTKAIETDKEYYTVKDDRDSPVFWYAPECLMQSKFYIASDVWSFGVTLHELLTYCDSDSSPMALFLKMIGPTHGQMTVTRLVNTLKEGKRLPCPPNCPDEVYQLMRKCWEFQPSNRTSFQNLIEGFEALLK

// query # input compound: Cc1cc(Nc2ncc(C)c(N3CC(CC#N)(N(C)C4CN(C)C4)C3)n2)sn1 [E37] ; wanted: its IC50
// result < 50 nM

***
// query # input compound: Cc1cc(Nc2ncc(C)c(N3CC(CC#N)(N4CC5(CC5)C4)C3)n2)sn1 [E95a] ; wanted: its IC50
// result < 50 nM

// query # input compound: Cc1cc(Nc2ncc(C)c(N3C4CC3CN(CC#N)C4)n2)sn1 [E117-V] ; wanted: its IC50
// result < 50 nM

// query # input compound: CCC1(NC(=O)c2cccc(F)c2)CN(c2nc(Nc3cc(C)ns3)ncc2C)C1 [E318B] ; wanted: its IC50
// result < 10 nM

// query # input compound: Cc1cc(Nc2ncc(C)c(N3CC(O)(CC#N)C3)n2)sn1 [E114a] ; wanted: its IC50
// result < 20 nM

// query # input compound: Cc1cc(Nc2ncc(C3CC3)c(N3CC(CC#N)(N4CCN5C[C@H](F)C[C@H]5C4)C3)n2)sn1 [E102a] ; wanted: its IC50
// result < 10 nM

// query # input compound: Cc1cc(Nc2ncc(C)c(N3CC(CC#N)(N4CCCC5(CC5)C4)C3)n2)sn1 [E21] ; wanted: its IC50
// result < 10 nM

// query # input compound: Cc1cc(Nc2ncc(C)c(N3CC(N)(CC#N)C3)n2)sn1 [E117-AA] ; wanted: its IC50
// result < 100 nM

// query # input compound: Cc1cc(Nc2ncc(C)c(N3CC(CCF)(N4CCN5C[C@H](F)C[C@H]5C4)C3)n2)sn1 [E117-A] ; wanted: its IC50
// result < 50 nM

###

Consider molecules characterized by their IC50 with TYK2 (Homo sapiens (Human)).
Sequence (P29597 whole entry, species assumed): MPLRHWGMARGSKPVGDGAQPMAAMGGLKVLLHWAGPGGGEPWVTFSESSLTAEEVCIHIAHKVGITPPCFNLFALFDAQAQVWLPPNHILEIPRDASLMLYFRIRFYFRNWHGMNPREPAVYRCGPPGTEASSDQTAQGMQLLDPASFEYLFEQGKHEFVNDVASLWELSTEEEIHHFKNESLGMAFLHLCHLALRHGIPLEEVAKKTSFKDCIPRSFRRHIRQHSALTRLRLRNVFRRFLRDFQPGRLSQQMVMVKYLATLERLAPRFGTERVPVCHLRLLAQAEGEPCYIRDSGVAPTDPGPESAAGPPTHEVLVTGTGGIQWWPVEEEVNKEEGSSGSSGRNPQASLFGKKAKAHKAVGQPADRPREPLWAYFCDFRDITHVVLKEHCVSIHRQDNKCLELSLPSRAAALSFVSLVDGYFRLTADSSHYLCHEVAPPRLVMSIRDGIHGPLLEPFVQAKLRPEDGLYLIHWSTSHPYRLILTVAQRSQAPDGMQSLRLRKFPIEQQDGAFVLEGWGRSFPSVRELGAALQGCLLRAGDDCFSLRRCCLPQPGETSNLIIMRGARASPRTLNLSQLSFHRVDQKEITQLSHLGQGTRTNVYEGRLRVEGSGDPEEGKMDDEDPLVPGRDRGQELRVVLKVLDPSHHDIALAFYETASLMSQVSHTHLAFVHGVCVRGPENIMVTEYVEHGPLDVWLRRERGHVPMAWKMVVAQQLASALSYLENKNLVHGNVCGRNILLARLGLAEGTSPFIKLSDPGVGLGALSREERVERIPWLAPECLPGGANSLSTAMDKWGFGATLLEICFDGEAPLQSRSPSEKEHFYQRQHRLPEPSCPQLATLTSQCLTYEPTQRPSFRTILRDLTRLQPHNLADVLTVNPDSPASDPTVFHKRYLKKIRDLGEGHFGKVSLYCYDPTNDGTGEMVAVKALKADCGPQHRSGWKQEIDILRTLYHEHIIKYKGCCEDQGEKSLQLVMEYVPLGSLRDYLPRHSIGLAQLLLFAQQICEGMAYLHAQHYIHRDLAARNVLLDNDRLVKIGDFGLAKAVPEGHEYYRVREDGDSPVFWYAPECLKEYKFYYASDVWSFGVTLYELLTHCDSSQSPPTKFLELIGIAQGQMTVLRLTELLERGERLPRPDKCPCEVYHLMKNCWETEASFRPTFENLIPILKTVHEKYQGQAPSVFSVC

// query # input molecule: Cc1cc(Nc2ncc(C)c(N3CC(CC#N)(NC(=O)C4CCCCC4(F)F)C3)n2)sn1 (stereo not drawn) [E354] ; wanted: its IC50
// result < 50 nM

// query # input molecule: Cc1cc(Nc2ncc(C)c(N3CC(CC#N)(N4CCN5C[C@H](F)C[C@H]5C4)C3)n2)sn1 [E67a] ; wanted: its IC50
// result < 10 nM

// query # input molecule: Cc1cc(Nc2ncc(C)c(N3CC(CC#N)(N4CCN(CCCF)CC4)C3)n2)sn1 [E117-J] ; wanted: its IC50
// result < 5 nM

***
// query # input molecule: Cc1cc(Nc2ncc(C)c(N3CC(CC#N)(N4CCN5CC(F)(F)C[C@H]5C4)C3)n2)sn1 [E81a] ; wanted: its IC50
// result < 20 nM

// query # input molecule: Cc1cc(Nc2ncc(C)c(N3CC(CC#N)(N4CCC5C(CC4)C5(F)F)C3)n2)sn1 (stereo not drawn) [E52E] ; wanted: its IC50
// result < 10 nM

// query # input molecule: Cc1cc(Nc2ncc(C)c(N3CC(CC#N)(N4CC5(CC5)C4)C3)n2)sn1 [E95a] ; wanted: its IC50
// result < 10 nM

###

compounds and their reported IC50
- study system: JAK1 (Homo sapiens (Human), UniProt P23458)

As a guide, the following entries are already answered.
// query Which IC50 is reported with JAK1 (Homo sapiens (Human), UniProt P23458) for this entry: Cc1cnc(Nc2ccc(N3CCN(C)CC3)cc2)nc1N1CC(CC#N)(N(C)C2CC2)C1 [E213] ?
// result < 0.05 µM

// query Which IC50 is reported with JAK1 (Homo sapiens (Human), UniProt P23458) for this entry: Cc1cnc(Nc2cnn(C)c2)nc1N1CC(CC#N)(N2CCN(C)CC2)C1 [E80] ?
// result < 0.02 µM

// query Which IC50 is reported with JAK1 (Homo sapiens (Human), UniProt P23458) for this entry: Cc1cc(Nc2ncc(C)c(N3CC(CC#N)(N4CCCN5CCC[C@H]5C4)C3)n2)sn1 [E87a] ?
// result < 0.01 µM

// query Which IC50 is reported with JAK1 (Homo sapiens (Human), UniProt P23458) for this entry: Cc1cc(Nc2ncc(C)c(N3CC(CC#N)(N4CCCN(C)CC4)C3)n2)sn1 [E52G] ?
// result < 0.1 µM

// query Which IC50 is reported with JAK1 (Homo sapiens (Human), UniProt P23458) for this entry: Cc1cc(Nc2ncc(C)c(N3CC(CC#N)(N4CCn5c(cnc5C)C4)C3)n2)sn1 [E91a] ?
// result < 0.01 µM

// query Which IC50 is reported with JAK1 (Homo sapiens (Human), UniProt P23458) for this entry: Cc1cc(Nc2ncc(C)c(N3CC(CCO)(N4CCN5CCC[C@H]5C4)C3)n2)sn1 [E103a] ?
// result < 0.01 µM

Okay, now this compound:
// query Which IC50 is reported with JAK1 (Homo sapiens (Human), UniProt P23458) for this entry: Cc1cc(Nc2ncc(C)c(N3CC(CC#N)(N4CCN(CCF)CC4)C3)n2)sn1 [E55a] ?
// result < 0.01 µM
